Reference for the values: patent US20240132498A1

- Target under test: CYP1A2 (Homo sapiens)
- Construct: from tissue; host or cells: pooled human liver microsomes
- Sequence (P05177 whole entry): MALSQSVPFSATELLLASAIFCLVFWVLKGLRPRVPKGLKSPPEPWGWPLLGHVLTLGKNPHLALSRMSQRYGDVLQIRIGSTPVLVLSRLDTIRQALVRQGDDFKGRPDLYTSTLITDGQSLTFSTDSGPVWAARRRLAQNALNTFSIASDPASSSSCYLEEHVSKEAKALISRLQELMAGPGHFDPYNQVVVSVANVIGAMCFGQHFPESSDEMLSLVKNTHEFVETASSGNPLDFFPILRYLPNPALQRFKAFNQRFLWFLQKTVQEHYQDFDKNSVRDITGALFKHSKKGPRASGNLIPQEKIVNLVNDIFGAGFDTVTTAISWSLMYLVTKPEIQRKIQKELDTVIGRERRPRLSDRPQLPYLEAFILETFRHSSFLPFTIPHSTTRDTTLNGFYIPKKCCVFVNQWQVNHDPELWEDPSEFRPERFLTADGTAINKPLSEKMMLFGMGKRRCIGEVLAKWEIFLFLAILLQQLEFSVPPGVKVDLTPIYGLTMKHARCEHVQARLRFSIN
- Test description: Time-dependent inhibition of CYP450 enzymes in human liver microsomes: CYP1A2
- Assay type: in vitro ADME
- Assay conditions: human, pooled human liver microsomes; CYP1A2, 50 μM, time zero; read-out: % Activity NADPH T0
Test readout: activity at 0 min, 50 µM (%)
Give bare numbers, in %.

IN: Bench note: what activity at 0 min, 50 µM did "C[C@H]1CC[C@H](N2CC(=O)N(Cc3ccc(F)c(F)c3)C3(CN(C=O)C3)C2=O)CC1" show?
OUT: 86

----------
- Target under test: CYP2C8 (Homo sapiens, UniProt P10632)
- Construct: from tissue; host or cells: pooled human liver microsomes
- Sequence (P10632 1-490): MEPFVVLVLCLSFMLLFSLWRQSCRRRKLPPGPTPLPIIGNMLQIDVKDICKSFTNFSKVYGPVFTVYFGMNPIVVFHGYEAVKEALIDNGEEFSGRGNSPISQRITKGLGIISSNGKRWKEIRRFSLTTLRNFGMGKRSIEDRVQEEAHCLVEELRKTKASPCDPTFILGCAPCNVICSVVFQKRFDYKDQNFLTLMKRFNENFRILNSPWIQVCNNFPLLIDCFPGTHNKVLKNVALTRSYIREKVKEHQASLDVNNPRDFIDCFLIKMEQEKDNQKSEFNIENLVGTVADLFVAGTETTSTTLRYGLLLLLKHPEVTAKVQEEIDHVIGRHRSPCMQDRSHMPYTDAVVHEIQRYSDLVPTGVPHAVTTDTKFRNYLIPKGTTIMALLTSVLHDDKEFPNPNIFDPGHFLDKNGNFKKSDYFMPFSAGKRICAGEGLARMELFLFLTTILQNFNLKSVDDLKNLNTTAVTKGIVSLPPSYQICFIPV
- Test description: Time-dependent inhibition of CYP450 enzymes in human liver microsomes: CYP2C8
- Format: in vitro ADME
- Assay conditions: human, pooled human liver microsomes; CYP2C8, 25 μM, time zero; read-out: % Activity NADPH T0
Test readout: activity at 0 min, 25 µM (%)
Numbers only, in %.

IN: What value of activity at 0 min, 25 µM has been reported for the following compound? "C[C@H]1CC[C@H](N2CC(=O)N(Cc3ccc(F)c(F)c3)C3(CN(C=O)C3)C2=O)CC1"
OUT: 79

----------
- Test description: Kinetic solubility of crystalline Form II in solvents
- Format: physicochemical
- Assay conditions: DMSO, 25 °C, organic solvent or mixture, thermodynamic from solid, DMSO, single replicate, read-out: Solubility
Test readout: solubility at 4 h

IN: Query: solubility at 4 h; subject: C[C@H]1CC[C@H](N2CC(=O)N(Cc3ccc(F)c(F)c3)C3(CN(C=O)C3)C2=O)CC1 [Form II]
OUT: > 101 mg/mL

----------
- Target under test: CYP2C9 (Homo sapiens)
- Construct: from tissue; host or cells: pooled human liver microsomes
- Sequence (P11712 whole entry): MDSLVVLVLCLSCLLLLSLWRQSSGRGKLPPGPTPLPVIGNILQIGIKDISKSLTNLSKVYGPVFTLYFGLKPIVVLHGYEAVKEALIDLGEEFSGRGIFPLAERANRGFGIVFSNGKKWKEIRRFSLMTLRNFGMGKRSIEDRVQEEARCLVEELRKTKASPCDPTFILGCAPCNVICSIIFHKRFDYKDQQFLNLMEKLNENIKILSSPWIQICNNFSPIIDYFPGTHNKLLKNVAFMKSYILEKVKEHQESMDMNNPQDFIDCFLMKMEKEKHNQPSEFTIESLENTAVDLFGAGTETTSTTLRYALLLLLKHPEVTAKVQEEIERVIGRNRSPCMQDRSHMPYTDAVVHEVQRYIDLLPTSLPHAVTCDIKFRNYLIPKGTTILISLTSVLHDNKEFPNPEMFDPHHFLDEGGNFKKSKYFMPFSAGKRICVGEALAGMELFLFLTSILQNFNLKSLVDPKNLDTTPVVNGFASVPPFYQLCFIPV
- Test description: Time-dependent inhibition of CYP450 enzymes in human liver microsomes: CYP2C9
- Format: in vitro ADME
- Assay conditions: human, pooled human liver microsomes; CYP2C9, 50 μM, time zero; read-out: % Activity NADPH T0
Test readout: activity at 0 min, 50 µM
Answers without a unit are incomplete; give the number and then its unit.

IN: Which activity at 0 min, 50 µM reading was recorded for the molecule C[C@H]1CC[C@H](N2CC(=O)N(Cc3ccc(F)c(F)c3)C3(CN(C=O)C3)C2=O)CC1 [Compound 1] ?
OUT: 63%

----------
- Test description: Rat single dose pharmacokinetics
- Assay type: in vivo
- Assay conditions: male, plasma, iv, Sprague Dawley rats, read-out: Vss
Please respond with reported Vd for every item in the list.

Use the examples below as a reference point.
Molecule: O=CN1CC2(C1)C(=O)N(c1ccc(F)cc1F)CC(=O)N2Cc1ccc(Cl)cc1
Vd: 15.1 L/kg
--
Molecule: C[C@H]1CC[C@H](N2CC(=O)N(Cc3ccc(F)c(F)c3)C3(CN(C=O)C3)C2=O)CC1
Vd: 13 L/kg
--
Molecule: O=CN1CC2(C1)C(=O)N([C@H]1CC[C@H](C(F)F)CC1)CC(=O)N2Cc1ccc(C(F)(F)F)cc1
Vd: 8.23 L/kg
--
Molecule: CC(=O)N1CC2(C1)C(=O)N(c1ccc(C#N)cc1F)CC(=O)N2Cc1ccc(C(F)(F)F)cc1
Vd: 2.98 L/kg

Now take the following molecule into account.
IN: Vd for O=C1[C@H](C2COC2)N(Cc2ccc(C(F)(F)F)cc2)C(=O)CN1c1ncc(Cl)cc1F [Comparator C, reference compound] ?
OUT: 5.2 L/kg

----------
- Test description: Kinetic solubility of crystalline Form II in solvents
- Type: physicochemical
- Assay conditions: DI Water, 25 °C, pH 8.7, water, thermodynamic from solid, DI Water, final pH 8.7, read-out: Average Solubility
Test readout: solubility at 4 h

IN: Consider the molecule C[C@H]1CC[C@H](N2CC(=O)N(Cc3ccc(F)c(F)c3)C3(CN(C=O)C3)C2=O)CC1 [Form II] and give its measured solubility at 4 h.
OUT: ~410 µg/mL

----------
- Test description: Long-term storage stability of the solid (1, 3, 6 months)
- Type: physicochemical
- Assay conditions: 25° C./60% RH, 3 months
Test readout: Total Impurities (%)
Answers are plain numbers, in %.

IN: Any idea what Total Impurities was measured for C[C@H]1CC[C@H](N2CC(=O)N(Cc3ccc(F)c(F)c3)C3(CN(C=O)C3)C2=O)CC1 [Form II] ?
OUT: 0.91

----------
- Test description: Long-term storage stability of the solid (1, 3, 6 months)
- Assay type: physicochemical
- Assay conditions: 25° C./60% RH, 6 months
Test readout: Total Impurities (%)
One number for each entry, in %.

IN: Which Total Impurities value belongs to C[C@H]1CC[C@H](N2CC(=O)N(Cc3ccc(F)c(F)c3)C3(CN(C=O)C3)C2=O)CC1 [Form II] ?
OUT: 0.93

----------
- Target under test: CYP2B6 (Homo sapiens, UniProt P20813)
- Construct: from tissue; host or cells: pooled human liver microsomes
- Sequence (P20813 whole entry): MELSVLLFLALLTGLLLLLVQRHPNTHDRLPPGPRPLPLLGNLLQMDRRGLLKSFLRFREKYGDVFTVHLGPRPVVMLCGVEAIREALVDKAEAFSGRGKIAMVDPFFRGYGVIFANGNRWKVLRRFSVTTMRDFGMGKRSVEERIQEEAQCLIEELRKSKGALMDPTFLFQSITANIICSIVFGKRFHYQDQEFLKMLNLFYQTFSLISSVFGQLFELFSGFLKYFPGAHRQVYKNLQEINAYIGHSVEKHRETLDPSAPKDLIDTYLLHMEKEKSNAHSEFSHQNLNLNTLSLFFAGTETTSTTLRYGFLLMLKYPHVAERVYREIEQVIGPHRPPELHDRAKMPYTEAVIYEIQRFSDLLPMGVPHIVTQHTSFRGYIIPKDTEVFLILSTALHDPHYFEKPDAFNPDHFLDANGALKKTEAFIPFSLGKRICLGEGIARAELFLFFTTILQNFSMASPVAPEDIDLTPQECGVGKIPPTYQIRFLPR
- Test description: Time-dependent inhibition of CYP450 enzymes in human liver microsomes: CYP2B6
- Type: in vitro ADME
- Assay conditions: human, pooled human liver microsomes; CYP2B6, 50 μM, 30 minutes incubation; read-out: % Activity NADPH T30
Test readout: activity at 30 min, 50 µM (%)
Answers are plain numbers, in %.

IN: Query for CYP2B6 (Homo sapiens, UniProt P20813): what activity at 30 min, 50 µM does the record show for C[C@H]1CC[C@H](N2CC(=O)N(Cc3ccc(F)c(F)c3)C3(CN(C=O)C3)C2=O)CC1 [Compound 1] ?
OUT: 76

----------
- Target under test: CYP3A4 (Homo sapiens, UniProt P08684)
- Construct: from tissue; host or cells: pooled human liver microsomes
- Sequence (P08684 whole entry): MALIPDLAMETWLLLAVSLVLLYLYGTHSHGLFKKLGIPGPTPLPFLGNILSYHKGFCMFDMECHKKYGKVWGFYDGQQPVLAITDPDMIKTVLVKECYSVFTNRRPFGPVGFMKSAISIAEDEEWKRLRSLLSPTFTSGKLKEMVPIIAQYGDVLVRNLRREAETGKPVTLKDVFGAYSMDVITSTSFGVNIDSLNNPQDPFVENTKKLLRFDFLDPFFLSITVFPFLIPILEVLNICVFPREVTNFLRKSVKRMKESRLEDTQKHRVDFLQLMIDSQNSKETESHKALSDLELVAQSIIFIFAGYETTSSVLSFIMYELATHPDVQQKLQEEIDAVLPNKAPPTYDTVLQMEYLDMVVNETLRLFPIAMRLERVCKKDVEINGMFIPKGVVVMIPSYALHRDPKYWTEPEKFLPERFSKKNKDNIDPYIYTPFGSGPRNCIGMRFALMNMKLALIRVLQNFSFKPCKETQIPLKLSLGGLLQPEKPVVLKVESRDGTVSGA
- Test description: Time-dependent inhibition of CYP450 enzymes in human liver microsomes: CYP3A4-T (testosterone probe)
- Type: in vitro ADME
- Assay conditions: human, pooled human liver microsomes; CYP3A4-T (testosterone probe), 50 μM, time zero; read-out: % Activity NADPH T0
Test readout: activity at 0 min, 50 µM (%)
Answers are plain numbers, in %.

Molecule: O=C1[C@H](C2COC2)N(Cc2ccc(C(F)(F)F)cc2)C(=O)CN1c1ncc(Cl)cc1F [Comparator C, reference compound]
Unit abbreviation: %
Readout number: 35

IN: Which activity at 0 min, 50 µM is reported with CYP3A4 (Homo sapiens, UniProt P08684) for this entry: "C[C@H]1CC[C@H](N2CC(=O)N(Cc3ccc(F)c(F)c3)C3(CN(C=O)C3)C2=O)CC1" ?
OUT: 83

----------
- Test description: Dog single dose pharmacokinetics
- Assay type: in vivo
- Assay conditions: male, plasma, intravenous, beagle dogs
Please provide measured clearance for the entries that follow.
Numbers only, in L/h/kg.

Recorded results for 4 compounds are shown here.
Compound: C[C@H]1CC[C@H](N2CC(=O)N(Cc3ccc(F)c(F)c3)C3(CN(C=O)C3)C2=O)CC1
Test readout: clearance
Readout number: 0.454

Compound: O=CN1CC2(C1)C(=O)N([C@H]1CC[C@H](C(F)F)CC1)CC(=O)N2Cc1ccc(C(F)(F)F)cc1
Test readout: clearance
Readout number: 0.0894

Compound: CC(=O)N1CC2(C1)C(=O)N(c1ccc(C#N)cc1F)CC(=O)N2Cc1ccc(C(F)(F)F)cc1
Test readout: clearance
Readout number: 0.213

Compound: O=C1[C@H](C2COC2)N(Cc2ccc(C(F)(F)F)cc2)C(=O)CN1c1ncc(Cl)cc1F [Comparator C, reference compound]
Test readout: clearance
Readout number: 0.295

// next item, clearance requested
IN: Returns the measured clearance for the input compound. Input: "O=CN1CC2(C1)C(=O)N(c1ccc(F)cc1F)CC(=O)N2Cc1ccc(Cl)cc1"
OUT: 0.0954

----------
Could you please report measured half-life for the items listed next?
- Test description: Rat single dose pharmacokinetics
- Assay type: in vivo
- Assay conditions: male, plasma, iv, Sprague Dawley rats

Compound: O=CN1CC2(C1)C(=O)N(c1ccc(F)cc1F)CC(=O)N2Cc1ccc(Cl)cc1 [Comparator A]
half-life: 6.48 h
//
Compound: C[C@H]1CC[C@H](N2CC(=O)N(Cc3ccc(F)c(F)c3)C3(CN(C=O)C3)C2=O)CC1 [Compound 1]
half-life: 3.34 h
//
Compound: O=CN1CC2(C1)C(=O)N([C@H]1CC[C@H](C(F)F)CC1)CC(=O)N2Cc1ccc(C(F)(F)F)cc1 [Comparator E]
half-life: 5.4 h
//
Compound: O=C1[C@H](C2COC2)N(Cc2ccc(C(F)(F)F)cc2)C(=O)CN1c1ncc(Cl)cc1F [Comparator C, reference compound]
half-life: 3.3 h

Consider the record given below.
IN: For the compound CC(=O)N1CC2(C1)C(=O)N(c1ccc(C#N)cc1F)CC(=O)N2Cc1ccc(C(F)(F)F)cc1 [Comparator D] , what half-life is on record?
OUT: 4.84 h
